Reference for the values: PubChem BioAssay

- TGT: Focal adhesion kinase 1 (Homo sapiens)
- MEASUREMENT_PROTOCOL: small-molecule microarray binders of FAK, primary screen, biochemical, 635/667 nm fluorescence, BSA, DTT (AID 1130);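 further: composite of spot emission at 667 nm and signal to noise over triplicate slides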
- APPLIED_CONDITIONS: PTK2 binding, 635 nm fluorescence, higher = more signal
Measured composite z-score by item

In the examples that follow, each entry is paired with its recorded composite z-score.
>>> result("CC1(C)[C@@H]2CC(C(O)C3C=CC4C(=O)N(c5ccccc5)C(=O)C4N3Nc3ccc([N+](=O)[O-])cc3)=C[C@H]1C2 (some centres undefined)")
0.368
>>> result("O=C1N(Cc2ccccc2)c2ccccc2[C@@H]2OC(c3ccc(OCCCO)cc3)=N[C@]12CCS(=O)(=O)c1ccccc1")
0.564
>>> result("O=C1N[C@@H](Cc2ccccc2)C(=O)N2[C@@H]1C[C@@H](C(=O)O)[C@H]2c1cccc(OCCO)c1")
0.27
>>> result("CNS(=O)(=O)c1ccc(C)cc1")
-0.163
>>> result("CN(C)C(=O)[C@]1(Cc2ccccc2N=[N+]=[N-])N=C(c2ccc(OCCCO)cc2)O[C@@H]1c1ccccc1N=[N+]=[N-]")
0.646

C=CC1(C(=O)OC)CC=C(C(=O)OC)CC1 (centres undefined) yielded composite z-score of 0.286

# composite z-score (molecule: CC(C)C(CO)N1C(=O)[C@@H]2C3C(=O)OCCC/C=C\[C@H]3OC23C=CCN(CCN2CCOCC2)C(=O)[C@@H]13 (some centres undefined) ) is -0.0582

Query "CCOC(=O)C1=C[C@@H](C(C)(C)C)N(S(=O)(=O)c2ccc(C)cc2)[C@H]1c1ccc(F)cc1" yields composite z-score of -0.225

// composite z-score lookup, molecule = CC(C)C(O)C1C=CC2C(=O)N(c3ccccc3)C(=O)C2N1Nc1ccc([N+](=O)[O-])cc1 (centres undefined) , result: 0.774

###

- MEASUREMENT_PROTOCOL: small-molecule microarray binders of probe aNog, primary screen, biochemical, biotinylated probe, 635/667 nm fluorescence (AID 1115);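 further: probe is biotinylated aNog protein used at 0.15 µg/mL for 1 h at 4 C; z-score combines 667 nm fluorescence of each spot with its signal to noise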
- APPLIED_CONDITIONS: higher = more signal
QUANTITY: composite z-score
Write the value as a bare number.

>>> numeric_readout("C=CCN1C(=O)[C@]2(O[C@H](CCn3cc([C@H](O)c4ccccc4)nn3)[C@@H]([Si](C)(C)c3ccc(OC)cc3)[C@@H]2C)c2cc(N3CCC3=O)ccc21")
0.328
>>> numeric_readout("O=C(NCCN1CCOCC1)C1N=C(c2ccc(OCCCO)cc2)N(c2ccccc2)O1 (stereo not drawn)")
0.05
>>> numeric_readout("CCCC[C@H]1OB(O)C[C@H]2C1=C(COC)C[C@H]1C(=O)N(C)C(=O)[C@H]12")
-0.0496
>>> numeric_readout("COC(=O)C(CC#Cc1ccc2c(c1)[C@]1(C(=O)N2)[C@H](c2ccc(OCCO)cc2)N2[C@H](c3ccccc3)[C@H](c3ccccc3)OC(=O)[C@H]2[C@@H]1C(=O)N1CCc2cc(OC)c(OC)cc2C1)C(=O)OC")
-0.422
>>> numeric_readout("C=CCOC(=O)[C@@H]1[C@H]2C(=O)O[C@H](c3ccccc3)[C@H](c3ccccc3)N2[C@H](c2ccc(OCCOC(=O)[C@@H]3C[C@@H]4C(=O)NCC(=O)N4[C@@H]3c3ccc(O)cc3)cc2)[C@@]12C(=O)Nc1ccc(I)cc12")
-0.175
>>> numeric_readout("O=C(NCCN1CCOCC1)[C@@H]1c2ccccc2C(=O)N(C2CCCCC2)[C@H]1c1ccc(CO)cc1")
0.76

Briefly, composite z-score measured for "CC(C)C(=C=CC[C@@H](O)c1ccc(OCCO)cc1)C[C@@H](O)COCc1ccccc1" : 0.526

The measured composite z-score associated with "COCCOC(=O)N1C(=O)[C@@]2(c3cc(C#CCC(C(=O)OC)C(=O)OC)ccc31)[C@H](C(=O)Nc1nc3ccccc3s1)[C@H]1C(=O)O[C@H](c3ccccc3)[C@H](c3ccccc3)N1[C@@H]2c1ccccc1OCCO" reads 0.106

Recorded result, "CN(C)CCCCCCNC(=O)[C@@H]1C[C@@H]2C(=O)N[C@@H](Cc3ccccc3)C(=O)N2[C@@H]1c1ccc(O)cc1" , composite z-score: 0

GET /value?item= "Cc1ccc(S[C@]2(C(=O)NCCCN(C)C)CC(=O)N(Cc3cc(C(F)(F)F)cc(C(F)(F)F)c3)[C@@H]2c2ccc(CO)cc2I)cc1" &field=composite z-score returns 1.73

composite z-score reading for "CC(=O)NCCCC[C@@H]1NC(=O)[C@@H]2C[C@H](C(=O)NCCCCCNC(=O)CS)[C@H](c3cccc(OCCO)c3)N2C1=O" : -0.0533

What the record says about "COC(=O)C(CC#Cc1ccc2c(c1)[C@]1(C(=O)N2)[C@H](C(=O)Nc2nc3ccccc3s2)[C@H]2C(=O)O[C@H](c3ccccc3)[C@H](c3ccccc3)N2[C@@H]1c1ccccc1OCCO)C(=O)OC" : composite z-score is 0.733

Lab book: composite z-score of CC(C)C(O)C1C=CC2C(=O)N(c3ccccc3)C(=O)C2N1Nc1ccc([N+](=O)[O-])cc1 (stereo not drawn) noted as 0.202

###

- Test system: Plasmodium falciparum Sir2 (PF13_0152, Sir2A)
- MEASUREMENT_PROTOCOL: pfSir2 binders on small-molecule microarrays, primary screen, biochemical, small-molecule microarray, 635 nm fluorescence (AID 1098);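 further: score merges spot fluorescence intensity with its signal-to-noise ratio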
- APPLIED_CONDITIONS: small-molecule microarray binding, fluorescence 635 nm; higher = more signal
Rule: Y for composite z-score not less than 0.7, N for anything less.

>>> label_value("COc1ccc(-c2cc3c(c(-c4ccc(Oc5ccccc5)cc4)n2)[Si](C(C)C)(C(C)C)OC3)cn1")
"N"
>>> label_value("COc1ccc(CCNC(=O)[C@@]2(C)c3ccccc3C(=O)N(C(C)C)[C@H]2c2ccc(CO)cc2)cc1")
"N"

Could you verify whether the entry "CCCCCCc1nc(-c2ccc(OC)nc2)cc2c1[Si](C(C)C)(C(C)C)O[C@H]2c1ccccc1" shows composite z-score of no less than 0.7?
Y

Tell me whether composite z-score is at least 0.7 here: "CCCC#C[Si](O[C@H](CC)c1cn(Cc2cccc(Cl)c2)nn1)(C(C)C)C(C)C"
N

Decide: is the reported value of composite z-score for "[N-]=[N+]=Nc1ccccc1[C@@H]1OC(c2ccc(OCCCO)cc2)=N[C@]1(CCS(=O)(=O)c1ccccc1)C(N)=O" equal to or greater than 0.7?
Y

Record "COC(=O)[C@@]1(Cc2ccc(OC)cc2)[C@H]2c3cc(C(=O)N4CCCC4)n(Cc4ccc(O)c(OC)c4)c3C[C@H]2CN1C(=O)c1ccccc1" ; criterion: composite z-score no lower than 0.7. Met?
Y

Does "C=C[C@H](CO)NS(=O)(=O)c1ccc(Br)cc1" have a reported composite z-score of at least 0.7?
N

###

- MEASUREMENT_PROTOCOL: E. coli acrAB mutant growth effects, primary screen, E. coli filamentation inducers, strain DRC39, OD650, 48 h (AID 1179);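 further: screen aims at cell division blockers that make cells filament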
- APPLIED_CONDITIONS: E. coli DRC39 delta-acrAB growth, higher = more signal, called active from +8 up or from −8 down
The source made the active and inactive calls.
QUANTITY: z-score

>>> result("N#Cc1ccc(NN2C(C(O)C(c3ccccc3)c3ccccc3)C=CC3C(=O)N(c4ccccc4)C(=O)C32)cc1 (stereo not given)")
"0.832 (inactive)"
>>> result("CN(C)CCCCCCNC(=O)[C@@H]1C[C@@H]2C(=O)N[C@@H](Cc3ccccc3)C(=O)N2[C@@H]1c1ccc(O)cc1")
"-1.25 (inactive)"
>>> result("O=C(c1ccccc1)N1Cc2ccccc2C[C@@]2(COC(c3ccc(OCCCO)cc3)=N2)C1=O")
"-0.564 (inactive)"

Lab note: CCCCCN1CC=CC23O[C@@H]4/C=C\CCC(C)OC(=O)C4[C@H]2C(=O)N(C(C)CO)[C@@H]3C1=O (stereo not given in full) gave z-score of 0.657 (inactive)

For "C=C(CCCC)/C(=C/C[C@@H](OC(C)=O)c1ccc(OCCO)cc1)c1cnc2ccccc2c1" the compound record lists z-score as 1.49 (inactive)

Field z-score (entry "CC(C)NC(=O)[C@@H]1c2ccccc2C(=O)N(C2Cc3ccccc3C2)[C@H]1c1ccc(CO)cc1" ) reads 0.95 (inactive)

Short answer for "CN(C)CCCCCCNC(=O)[C@H]1C[C@H]2C(=O)N3CCC[C@H]3C(=O)N2[C@H]1c1ccc(O)cc1" : z-score was -0.523 (inactive)

z-score measured on "C=CCNC(=O)[C@@H]1[C@H]2C(=O)O[C@H](c3ccccc3)[C@H](c3ccccc3)N2[C@H](c2ccc(O)cc2)[C@@]12C(=O)N(C(=O)OCCOC)c1ccc(C#CCNC(N)=O)cc12" = 1.39 (inactive)

Reported z-score for "COCCOC(=O)N1C(=O)[C@@]2(c3ccccc31)[C@H](c1ccccc1OCCO)N1[C@H](c3ccccc3)[C@H](c3ccccc3)OC(=O)[C@H]1[C@@H]2C(=O)N1CCN(c2ncccn2)CC1" was 0.176 (inactive)

compound CN1C(=O)C2C=CC(C(O)C3CC=CCC3)N(N(c3ccccc3)c3ccccc3)C2C1=O (stereo not given) , z-score observed: 0.364 (inactive)

So for "CCCCCCc1nc(-c2ccc(OC)nc2)cc2c1[Si](C(C)C)(C(C)C)O[C@H]2c1ccccc1" , the logged z-score turned out to be -0.0838 (inactive)

Quick note, z-score for "COc1cc2c(cc1OC)CN(C(=O)[C@@H]1[C@H]3C(=O)O[C@H](c4ccccc4)[C@H](c4ccccc4)N3[C@H](c3ccccc3OCCO)[C@@]13C(=O)Nc1ccc(C#CCCO)cc13)CC2" landed at 0.793 (inactive)

# z-score (compound: "[N-]=[N+]=Nc1ccccc1[C@@H]1OC(c2ccc(OCCCO)cc2)=N[C@]1(CCS(=O)(=O)c1ccccc1)C(N)=O" ) is -0.397 (inactive)

# z-score (compound: "C=C(CCCC)/C(=C/C[C@H](OC(=O)c1ccncc1)c1ccccc1OCCO)c1cnc2ccccc2c1" ) is 0.126 (inactive)

Briefly, z-score measured for "CC(C)[Si]1(C(C)C)O[C@@H](c2ccccc2)c2cc(-c3ccc(-c4ccc(Cl)c(Cl)c4)o3)nc(-c3ccccc3)c21" : -0.221 (inactive)
